Consider the following compounds; for each one, report its 100% Mortality of B. Malayi.
system: B. Malayi adult worms; assay: Dose response of active anthraquinones against adult worms (50 to 3.12 ppm); assay type: cell-based, Brugia malayi; conditions: 6.25 ppm
A number alone suffices; assume days.

[Q] Look up 100% Mortality of B. Malayi with B. Malayi adult worms for this compound: O=C1c2ccccc2C(=O)c2c1cc(O)c(O)c2O [Anthraquinone F, 1,2,3-Trihydroxy anthraquinone]
[A] 5

[Q] Similarly, COc1cccc2c1C(=O)c1c(cc(C)c(OC)c1O)C2=O [Anthraquinone R] ?
[A] 8

[Q] Similarly, Cc1cc2c(c(O)c1O)C(=O)c1ccccc1C2=O [Anthraquinone B, 1,2-Dihydroxy-3-methyl anthraquinone] ?
[A] 5

[Q] Similarly, Cc1cc2c(c(O)c1O)C(=O)c1c(O)cccc1C2=O [Anthraquinone J, 1,2,8-Trihydroxy-3-methyl anthraquinone] ?
[A] 5

Source listed as patent US7658937B2.
